molecular target: Adenosine receptor A2b (Homo sapiens, UniProt P29275); experiment: Antagonist activity at human adenosine receptor A2b expressed in CHO cell membranes assessed as inhibition of NECA-induced cAMP accumulation measured as NECA EC50 at 2 uM incubated for 15 mins in presence of [3H]cAMP by liquid scintillation counting (Rvb = 73 nM)
Sequence (P29275 whole entry): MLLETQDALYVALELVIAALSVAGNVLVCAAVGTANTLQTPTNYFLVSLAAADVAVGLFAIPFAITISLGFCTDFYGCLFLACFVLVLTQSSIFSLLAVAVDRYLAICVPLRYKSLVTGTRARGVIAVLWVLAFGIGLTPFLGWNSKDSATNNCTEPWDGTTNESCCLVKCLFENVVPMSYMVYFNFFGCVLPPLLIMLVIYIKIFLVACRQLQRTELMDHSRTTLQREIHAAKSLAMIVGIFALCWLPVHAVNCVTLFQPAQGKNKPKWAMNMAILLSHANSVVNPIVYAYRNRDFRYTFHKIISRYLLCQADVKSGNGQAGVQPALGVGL
reported_endpoint: pEC50
In plain terms, pEC50 is the concentration in mol/L turned into minus its base-10 logarithm.

Lookup: For the compound CCCCn1c(=O)c2c(nc3n2CCCN3CCc2ccc(OCCN(CC)CC)cc2)n(CCCC)c1=O , give its measured pEC50 value.
Found: 6.47

Source: BindingDB's records for doi:10.1016/j.bmc.2016.07.028
